Assay: Single-dose PK experiment of 2a
Details: brain, intraperitoneal, 20 mg/kg
ASSAY METRIC: concentration at 30 min (ng/g)
One number for each entry, in ng/g.

Input line: Please look up its concentration at 30 min: O=C(OC(Cn1ccnc1)c1ccc(F)cc1)c1cccc(C(F)(F)F)c1 (stereo not shown) [Compound 2a]
Output line: 100

---

Target: NfCYP51 (Naegleria fowleri)
Sequence (A0A2H4A2U9 entry or part of it): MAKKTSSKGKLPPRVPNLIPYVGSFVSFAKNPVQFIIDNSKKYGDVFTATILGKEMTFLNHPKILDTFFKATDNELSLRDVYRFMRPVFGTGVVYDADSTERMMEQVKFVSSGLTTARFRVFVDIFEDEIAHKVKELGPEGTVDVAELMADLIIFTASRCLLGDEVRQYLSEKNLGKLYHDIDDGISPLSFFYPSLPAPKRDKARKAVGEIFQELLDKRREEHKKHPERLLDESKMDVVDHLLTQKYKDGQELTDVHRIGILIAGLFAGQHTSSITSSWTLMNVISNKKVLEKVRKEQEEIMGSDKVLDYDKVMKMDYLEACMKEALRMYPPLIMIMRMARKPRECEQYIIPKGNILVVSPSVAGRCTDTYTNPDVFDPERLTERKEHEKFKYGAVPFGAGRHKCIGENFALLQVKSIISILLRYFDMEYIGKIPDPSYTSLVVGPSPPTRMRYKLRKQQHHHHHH
Test: biochemical
Assay type: binding
ASSAY METRIC: Kd

Input line: Please look up its Kd: Clc1ccc(COC(Cn2ccnc2)c2ccc(Cl)cc2Cl)c(Cl)c1 (stereo not shown) [Compound 1, miconazole]
Output line: ≤ 5 nM

// data source = paper PMC10758121
